Assay protocol: NCI Yeast Anticancer Drug Screen. Data for the mec2-1 strain (AID 157)
Measurement parameters: S. cerevisiae mec2-1 strain, at 50.0 µM, stronger effect = higher value
This is part of a sample that, as a whole, favours compounds with a hit. Of some 79,000 tested, about 15% had one in any assay.
Below, each of the molecules is paired with its reported growth inhibition value.

Molecule | growth inhibition, %
COc1ccccc1/C=C/C(=O)N1CCC2(CC1)C(=O)N(C)CN2c1ccccc1 | 8.45
O=C(/C=C\c1ccccc1)OC(c1ccccc1)c1ccc(Br)cc1 (stereo not drawn) | 6.25
CCCC1(C)OCC(C)(C)CO1 | 2.45
O=C(CP(c1ccccc1)c1ccccc1)c1cccc(C(=O)CP(c2ccccc2)c2ccccc2)c1 | -22.1
N#Cc1c(C#N)c(-c2ccco2)n(/N=C/c2ccco2)c1N | 0.6
C=C(C)COC(OCC(=C)C)C(C)C | 3.05
CCOc1ccccc1N=Nc1c(C)nn(C(=S)SC)c1OCC | 18.4
CCOc1ccc(/C=C/c2ccc3ccccc3[n+]2C)cc1OCC | 9
CCO[Si](CCCN)(OCC)OCC | -58.2
Cc1c[nH]c2nc(C)n(-c3ccc(F)cc3)c(=N)c12 | 2.4
CCCCCCCCCC1OC(C)C(C)O1 (stereo not drawn) | 7.55
Nc1ccc2cc3ccccc3cc2c1 | -20.6
CCOC1NC(=O)Oc2ccccc21 (stereo not drawn) | 0.5

====

Assay protocol: NCI Yeast Anticancer Drug Screen. Data for the mlh1 rad18 strain (AID 175)
Measurement parameters: S. cerevisiae mlh1 rad18 strain growth inhibition; at 50.0 µM; stronger effect = higher value
Compounds without any hit were thinned out: in the full panel of roughly 79,000, 15% have a hit.

Molecule | growth inhibition / %
CCOC(=O)Cn1c(=O)c(-c2ccccc2NC(C)=O)nc2ccccc21 | -14.1
CC1SC(=S)NC1=O (centres undefined) | -0.8
O=S(=O)(Cl)c1cc(Cl)ccc1Cl | -4.1
CN(C)CCSS(=O)(=O)O | -14.2
COS(=O)(=O)OC1(SC)C=C(c2ccccc2)SS1 (centres undefined) | 72.6
COc1cc(CNCCO)cc(OC)c1 | 13
Cc1cc(CO)c(O)c(CN(CC(=O)O)CC(=O)O)c1 | -0.7
NNC(=O)c1ccc[n+](CCc2ccccc2)c1 | -5.5
Fc1cccc2nc(-c3ccccc3)cc(OCc3ccccc3)c12 | -3.4
Cc1c(-c2ccccc2)c2ccccc2c2ccccc12 | -14.4
C=C(C)C(=O)Nc1ccc(-n2[nH]c(C)c(N=Nc3ccc(N(C)C)cc3)c2=O)cc1 | 1.85
O=C(O)c1ccccc1/C=N\N(CCO)C1=NCCN1 | 19
CN1CCN(C(=O)NC2CCCCC2)CC1 | -7.6
O=C1NC(c2ccccc2)C1N(Cc1ccccc1)Cc1ccccc1 (centres undefined) | 9.8
